- TEST SYSTEM: T1, TNFR1 (Homo sapiens, UniProt P19438)
- T1 chain: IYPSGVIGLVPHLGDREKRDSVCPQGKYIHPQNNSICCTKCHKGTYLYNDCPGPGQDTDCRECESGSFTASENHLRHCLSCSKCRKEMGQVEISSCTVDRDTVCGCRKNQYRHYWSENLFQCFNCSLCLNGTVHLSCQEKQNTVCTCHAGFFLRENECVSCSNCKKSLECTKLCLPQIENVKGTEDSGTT
- ASSAY PROCEDURE: yeast display SC50
EXPERIMENTAL ENDPOINT: apparent Kd (screen)
Remember to put the unit after the number in your answer.

Below: 3 binders and their reported apparent Kd (screen).
1) A15M (designed binder) MTLQELLREEALRRMEAEAFRYALELLAEKFPEQKEYLLDLAEEIESQIRSLSGVDVEDVRKFLDKEWAWVKELLAEHPAELAEVEAARAARLAELRAEVEAKVAA : 0.653 nM
2) A76E (designed binder) MTLQELLREEALRRAEAEAFRYALELLAEKFPEQKEYLLDLAEEIESQIRSLSGVDVEDVRKFLDKEWAWVKELLEEHPAELAEVEAARAARLAELRAEVEAKVAA : 0.593 nM
3) H78Y (designed binder) MTLQELLREEALRRAEAEAFRYALELLAEKFPEQKEYLLDLAEEIESQIRSLSGVDVEDVRKFLDKEWAWVKELLAEYPAELAEVEAARAARLAELRAEVEAKVAA : 0.653 nM

--- query ---
response.value for L75P (designed binder) MTLQELLREEALRRAEAEAFRYALELLAEKFPEQKEYLLDLAEEIESQIRSLSGVDVEDVRKFLDKEWAWVKELPAEHPAELAEVEAARAARLAELRAEVEAKVAA (field: apparent Kd (screen)) = 2.48 nM
